# key: entry, value: Phage binding ELISA signal, Anti-PSMA Fab with PSMA antigen
biological target: T1, PSMA Fab (biotinylated (site not stated)); experiment: phage ELISA; PSMA Fab-coated wells pre-incubated with PSMA antigen as competitor, anti-M13-HRP detection
T1 construct: Biotinylated PSMA Fab captured on neutravidin plates in the phage ELISA; also called Anti-PSMA Fab; 006 PSMA Fab
Where no end group is shown, it is not given here.
measure-name: Phage binding ELISA signal, Anti-PSMA Fab with PSMA antigen

* EGKWCIPDWMCAAH (cysteine pairing not given here; also: fused to phage pIII, linker and fusion site not given here) [Phage-2547] | 0.0598
* ESHWCIPAWMCEQF [Phage-2546] | 0.0589
* LYNWCTPAWMCYGY [Phage-2545] | 0.284
* LQTWCIPPWMCEGG [Phage-2556] | 0.0675
* MFKWCTPQWMCETM [Phage-2554] | 0.124
* AEYWCIPRWMCSQH [Phage-2552] | 0.0882
* EPKWCTPPWMCQSV [Phage-2551] | 0.0734
* GEKACIPAWMCSEN [Phage-2553] | 0.0736
